Molecular target: Fibroblast growth factor 22 (Homo sapiens) (UniProt Q9HCT0)
Sequence (Q9HCT0 whole entry, looked up): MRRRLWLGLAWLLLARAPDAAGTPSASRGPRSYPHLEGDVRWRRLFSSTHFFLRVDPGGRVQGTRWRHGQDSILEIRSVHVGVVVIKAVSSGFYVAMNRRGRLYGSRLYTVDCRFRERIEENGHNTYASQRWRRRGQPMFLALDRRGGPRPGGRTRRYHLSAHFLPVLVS
Test: binders of human FGF22 protein, dose response, FGF22 synaptogenesis inhibitor project, biophysical, thermal shift, cherry-pick (AID 687022); note: reference of the scale not given here
Settings: recombinant FGF22 thermal shift, SYPRO orange melting; series mostly up to 38 µM
Hit rate of the full screen: of about 1,000 compounds, about 360 (36%) were called active. Only a sample is shown.
quantity name: Tm shift activity

entry_smiles=CNC[C@H]1Oc2ccc(NC(=O)Nc3ccc(OC)cc3)cc2C(=O)N([C@H](C)CO)C[C@@H]1C recorded_result=inactive
entry_smiles=C[C@@H]1CN([C@H](C)CO)S(=O)(=O)c2ccc(C#CC3CC3)cc2O[C@H]1CN(C)C(=O)c1ccncc1 recorded_result=inactive
entry_smiles=Cc1cccc(C(=O)NNC(=O)c2ccc(NS(=O)(=O)c3cccs3)cc2)c1C recorded_result=inactive
entry_smiles=Cc1cccc(NC(=O)COc2coc(CN3CCc4ccccc4C3)cc2=O)c1 recorded_result=inactive
entry_smiles=Nc1n[nH]c(=S)n1/N=C1/C(=O)Nc2ccccc21 recorded_result=inactive
entry_smiles=COCC(=O)N(C)C[C@H]1Oc2cc(C#Cc3ccccc3)ccc2S(=O)(=O)N([C@H](C)CO)C[C@H]1C recorded_result=inactive
entry_smiles=Cc1cccnc1NC(=O)CCCN1C(=O)c2ccccc2C1=O recorded_result=inactive
entry_smiles=Cc1ccc(-c2c[n+](CC(=O)Nc3ccc(C)cc3C)c3n2CCC3)cc1 recorded_result=inactive
entry_smiles=CCOc1ccc(N(CC(=O)NCCSc2ccccn2)S(=O)(=O)c2ccc(Cl)cc2)cc1 recorded_result=inactive
entry_smiles=Cc1ccc(NC(=O)COC(=O)Cn2cnc3c2c(=O)n(C)c(=O)n3C)cc1F recorded_result=inactive
entry_smiles=Cc1[nH]c(=O)[nH]c(=O)c1S(=O)(=O)Nc1cccc([N+](=O)[O-])c1C recorded_result=inactive
entry_smiles=O=C(COC(=O)CCCOc1ccc(Cl)cc1Cl)NCc1ccccc1 recorded_result=inactive
entry_smiles=Cc1nn(C)cc1NC(=O)C[C@H]1CC[C@@H]2[C@@H](COc3ccc(NC(=O)NC(C)C)cc3C(=O)N2C)O1 recorded_result=inactive
entry_smiles=COc1cc(/C=N/NC(=O)c2ccncc2)ccc1OCC(=O)Nc1cccc([N+](=O)[O-])c1 recorded_result=inactive
entry_smiles=O=C(C1CCCC1)N1CC2(C1)[C@H](c1ccccc1)[C@@H](CO)N2CC1CC1 recorded_result=inactive
entry_smiles=CCCN(C)C[C@H]1Oc2cc(-c3ccncc3)ccc2S(=O)(=O)N([C@H](C)CO)C[C@H]1C recorded_result=inactive
entry_smiles=CC(C)(CNS(=O)(=O)c1ccc2c(c1)OCCO2)N1CCOCC1 recorded_result=inactive
entry_smiles=COCC(=O)N(C)C[C@@H]1Oc2cc(C#C[C@H](C)O)ccc2S(=O)(=O)N([C@@H](C)CO)C[C@H]1C recorded_result=inactive
entry_smiles=Cc1ccccc1-c1ccccc1[C@@H]1[C@@H](C#N)N(C(=O)c2ccccc2)[C@H]1CO recorded_result=inactive
